- TARGET: NAD-dependent protein deacetylase sirtuin-3, mitochondrial (Homo sapiens)
- Sequence (Q9NTG7 whole entry): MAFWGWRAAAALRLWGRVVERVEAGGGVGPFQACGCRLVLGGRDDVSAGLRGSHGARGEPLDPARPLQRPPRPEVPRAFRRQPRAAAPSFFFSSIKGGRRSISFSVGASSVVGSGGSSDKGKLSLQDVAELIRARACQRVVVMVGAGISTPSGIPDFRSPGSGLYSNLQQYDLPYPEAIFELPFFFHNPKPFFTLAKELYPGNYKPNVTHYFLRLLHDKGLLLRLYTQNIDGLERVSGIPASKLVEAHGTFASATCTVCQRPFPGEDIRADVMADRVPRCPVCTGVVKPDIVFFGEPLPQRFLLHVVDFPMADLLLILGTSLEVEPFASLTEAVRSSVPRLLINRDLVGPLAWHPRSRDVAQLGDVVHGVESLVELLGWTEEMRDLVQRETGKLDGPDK
- METHOD: Binding affinity to human Sirt3 (118 to 399 residues) assessed as dissociation constant of ternary complex using acetylated MnSOD peptide as substrate in presence of OAADPr by microscale thermophoresis analysis
METRIC: Kd
Number first, unit second: that is the form wanted.

Q. Test system NAD-dependent protein deacetylase sirtuin-3, mitochondrial (Homo sapiens); read-out Kd; what value for "C=CCc1ccc(O)c(-c2ccc(O)c(CC=C)c2)c1" ?
A. 290 nM

----------
- TARGET: NAD-dependent protein deacetylase sirtuin-3, mitochondrial (Homo sapiens, UniProt Q9NTG7)
- METHOD: Binding affinity to human Sirt3 (118 to 399 residues) assessed as dissociation constant using acetylated MnSOD peptide as substrate in presence of honokiol by microscale thermophoresis analysis
METRIC: Kd (µM)
Note: unit µM is implicit; provide only the numeric part.

Q. Need Kd of "NC(=O)c1ccc[n+]([C@@H]2C[C@H](COP(=O)(O)OP(=O)(O)OC[C@H]3O[C@@H](n4cnc5c(N)ncnc54)[C@H](O)[C@@H]3O)[C@@H](O)[C@H]2O)c1" , thanks.
A. 6.6
